FYI, the data here is from PubChem BioAssay (NCI).

- System: 786-0 renal
- EXPERIMENT: NCI-60 one-dose screen, 48 h (100 = growth as untreated, 0 = no growth, -100 = all killed)
- ASSAY_CONDITIONS: 10 µM unless noted
Compounds without any hit were thinned out: in the full panel of roughly 83,000, 20% have a hit. Active and inactive are the calls of the source. How the source made its calls: active means growth percent below 10; inactive means the rest.
Each entry below carries its recorded growth.

Below: 3 molecules and their reported growth.
* CC(=O)CC[C@H]1C(=O)N[C@@H](C(C)C)C(=O)N[C@@H](Cc2cc(O)cc(F)c2)C(=O)N2CCC[C@H](N2)C(=O)O[C@H](/C(C)=C/C=C/C(=O)OC(C)(C)C)C/C=C/C=C/[C@H](O)[C@H](C)[C@H]1O | 36.2% (inactive)
* CCCCOc1ccc(/C=N/NC(N)=S)cc1 | 68.3% (inactive)
* CN(C)CC#Cc1ccc2ncc(C#N)c(Nc3ccc(F)c(Cl)c3)c2c1 | 49.4% (inactive)

# get_value(readout='growth', item= CCN(CC)CCNc1nc2ccccc2c2c(=O)c3cc(Cl)ccc3sc12 )
74.5% (inactive)

Okay, and COc1ccc(OC)c(/C=C/C(=O)N/N=C/c2ccccc2)c1 ?
54.3% (inactive)

Okay, and Cc1cccc2c1S/C(=C/c1ccc([N+](=O)[O-])cc1)C2=O ?
106% (inactive)

Okay, and CC1=C(SCCC(=O)OC(C[Se]C2=C(C)C(=O)c3ccccc3C2=O)C(=O)NC(C)(C)C)C(=O)c2ccccc2C1=O (stereo not drawn) ?
-86.1% (active)

Okay, and CN1CCN(Cc2ccc(NC(=O)c3cncc(C#Cc4cnccc4C#N)c3)cc2C(F)(F)F)CC1 ?
101% (inactive)

Okay, and O=C1c2cccc3cccc(c23)C(=O)N1N1C(=O)c2cccc3c(NC4CCCCC4)ccc(c23)C1=O ?
105% (inactive)
